- measurement target: glycine site of the NMDA receptor (Rattus norvegicus, UniProt P35439)
- Construct: rat brain membranes
- experiment: Binding affinity for the glycine site of the NMDA receptor (test (a))
- measurement setup: displacement of a selective glycine site radioligand ([3H]-L-689,560) from rat brain membranes, tris-acetate buffer pH 7.4, 90 minutes
observed property: IC50

compound	observed property	result
Cc1c(Cl)cc2[nH]c(=O)c(=O)[nH]c2c1N(CC(=O)O)S(C)(=O)=O [Example 3]	IC50	< 100 nM
Cn1cnc(S(=O)(=O)NCCN(c2c(Cl)c(Cl)cc3[nH]c(=O)c(=O)[nH]c23)S(C)(=O)=O)c1 [Example 2]	IC50	< 100 nM
Cc1cc2[nH]c(=O)c(=O)[nH]c2c(N(CC(=O)O)S(C)(=O)=O)c1C [Example 7]	IC50	< 100 nM
Cc1c(Cl)cc2[nH]c(=O)c(=O)[nH]c2c1N(CCNS(=O)(=O)C(F)(F)F)S(C)(=O)=O [Example 4]	IC50	< 100 nM
CS(=O)(=O)NCCN(c1c(Cl)c(Cl)cc2[nH]c(=O)c(=O)[nH]c12)S(C)(=O)=O [Example 1]	IC50	< 100 nM
CCOC(=O)CN(c1c(C)c(C)cc2[nH]c(=O)c(=O)[nH]c12)S(C)(=O)=O [Example 11]	IC50	< 100 nM
CCCOC(=O)CN(c1c(C)c(C)cc2[nH]c(=O)c(=O)[nH]c12)S(C)(=O)=O [Example 12]	IC50	< 100 nM
Cc1cc2[nH]c(=O)c(=O)[nH]c2c(N(CC(=O)O)S(C)(=O)=O)c1Cl [5 [the (-)-isomer]]	IC50	< 100 nM
COC(=O)CN(c1c(C)c(C)cc2[nH]c(=O)c(=O)[nH]c12)S(C)(=O)=O [Example 10]	IC50	< 100 nM
